target.of.assay: T1, cMetECDHis (human, UniProt P08581 25-932, limits assumed, biotinylated in the cross-block ELISA of Example 17)
T1 construct: Expressed in HEK-293F cells; also called soluble cMetECDHis; biotinylated cMetECDHis
test.details: BLI (Octet); antibody captured, cMetECDHis in solution
Protocol: Antibody binding to cMetECDHis was analyzed by means of Bio-Layer Interferometry (BLI) technology on the Octet System (Fortebio, Menlo Park, USA). […] The difference in reflection of light (AA, nm) of the biosensor surface due to the binding of cMetECDHis was measured in real time during approximately 10 minutes and was used by the Octet software (V4.0, Fortebio) to calculate the association constant (kₐ [1/M×s]). […]
Would you kindly list pKd for each of these binders?
Reminder that pKd is minus the log10 of a molar concentration.

Requested read-out: pKd. Entry: anti-c-Met HuMab 008 (IgG1) (antibody, V domains shown, also called TH1016-008; PC1016-008) VH: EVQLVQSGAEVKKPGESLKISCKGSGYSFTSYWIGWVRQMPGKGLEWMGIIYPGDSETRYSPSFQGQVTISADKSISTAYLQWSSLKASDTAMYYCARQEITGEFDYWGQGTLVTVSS VL: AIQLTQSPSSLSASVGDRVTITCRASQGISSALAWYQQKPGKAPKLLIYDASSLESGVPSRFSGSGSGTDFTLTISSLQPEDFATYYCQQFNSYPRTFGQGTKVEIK
8.29

Try this binder too: anti-c-Met HuMab 035 (IgG1) (antibody, V domains shown, also called P1016-035; TH1016-035-D09) VH: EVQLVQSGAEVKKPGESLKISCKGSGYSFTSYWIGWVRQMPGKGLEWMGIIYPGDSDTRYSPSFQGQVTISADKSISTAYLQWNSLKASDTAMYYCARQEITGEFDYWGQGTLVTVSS VL: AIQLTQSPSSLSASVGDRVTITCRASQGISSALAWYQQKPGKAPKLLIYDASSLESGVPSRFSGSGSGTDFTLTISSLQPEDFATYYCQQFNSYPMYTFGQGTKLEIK
7.86

Input anti-c-Met HuMab 045 (IgG1) (antibody, V domains shown, also called TH1016-045; PC1016-045) VH: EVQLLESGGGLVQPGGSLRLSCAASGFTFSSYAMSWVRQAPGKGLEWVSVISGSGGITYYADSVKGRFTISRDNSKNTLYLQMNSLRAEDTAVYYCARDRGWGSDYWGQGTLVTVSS VL: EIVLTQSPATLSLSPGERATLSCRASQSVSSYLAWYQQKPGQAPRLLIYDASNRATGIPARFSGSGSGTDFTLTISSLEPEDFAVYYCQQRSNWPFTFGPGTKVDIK
8.54

Origin of values: patent US20150329642A1
